# Subject Of Test: Metabotropic glutamate receptor 5 (Homo sapiens, UniProt P41594)
# Experiment Description: Positive allosteric modulation of mGlu5 receptor assessed as calcium mobilization
# Sequence (P41594 whole entry): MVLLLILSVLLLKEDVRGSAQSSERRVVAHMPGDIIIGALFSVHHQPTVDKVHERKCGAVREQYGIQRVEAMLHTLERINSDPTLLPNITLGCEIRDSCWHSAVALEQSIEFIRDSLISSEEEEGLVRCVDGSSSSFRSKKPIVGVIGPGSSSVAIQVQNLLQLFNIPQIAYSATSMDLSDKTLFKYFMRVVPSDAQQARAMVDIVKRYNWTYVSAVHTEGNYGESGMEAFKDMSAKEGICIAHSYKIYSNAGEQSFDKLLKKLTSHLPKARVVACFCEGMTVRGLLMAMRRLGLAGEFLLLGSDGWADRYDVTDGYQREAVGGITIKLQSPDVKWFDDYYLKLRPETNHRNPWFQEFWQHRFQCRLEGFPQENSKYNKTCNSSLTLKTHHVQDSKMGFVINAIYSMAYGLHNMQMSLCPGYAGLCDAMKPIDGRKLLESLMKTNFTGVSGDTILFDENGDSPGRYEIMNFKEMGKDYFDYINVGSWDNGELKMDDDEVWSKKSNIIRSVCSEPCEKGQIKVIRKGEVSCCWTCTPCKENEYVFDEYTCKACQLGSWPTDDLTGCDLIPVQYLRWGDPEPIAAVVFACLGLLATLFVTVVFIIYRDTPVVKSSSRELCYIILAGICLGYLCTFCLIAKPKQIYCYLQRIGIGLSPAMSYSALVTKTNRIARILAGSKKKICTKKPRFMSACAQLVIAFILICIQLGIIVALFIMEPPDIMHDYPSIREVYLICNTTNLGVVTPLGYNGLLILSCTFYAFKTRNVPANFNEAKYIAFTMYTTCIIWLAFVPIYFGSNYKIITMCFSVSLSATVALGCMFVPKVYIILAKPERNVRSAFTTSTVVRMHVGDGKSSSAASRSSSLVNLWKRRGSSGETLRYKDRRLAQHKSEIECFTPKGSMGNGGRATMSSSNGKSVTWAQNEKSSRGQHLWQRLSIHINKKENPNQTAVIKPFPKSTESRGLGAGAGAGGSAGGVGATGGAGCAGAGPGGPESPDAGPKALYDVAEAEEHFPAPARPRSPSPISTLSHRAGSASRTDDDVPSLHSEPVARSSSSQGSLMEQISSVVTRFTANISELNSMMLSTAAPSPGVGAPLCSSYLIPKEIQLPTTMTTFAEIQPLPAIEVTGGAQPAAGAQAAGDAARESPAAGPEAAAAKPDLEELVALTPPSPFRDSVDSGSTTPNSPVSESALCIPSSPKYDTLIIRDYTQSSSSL
pEC50: −log10 of the molar value.
Categories are assigned from the measured pEC50 using these intervals: range A = under 6, range B = from 6 up to 7, range C = 7 and over

Any idea which band `O=C1c2ccc(C#Cc3ccccc3)cc2C(=O)N1CCN1CCOCC1` is in? range A

---

# Subject Of Test: Metabotropic glutamate receptor 5 (Homo sapiens, UniProt P41594)
# Experiment Description: Positive allosteric modulation of mGlu5 receptor assessed as calcium mobilization
# EC50 listing for each entry below

Reference set (5 entries):
Data point: `O=C(NC1CCC1)c1ccc(C#Cc2cccc(F)c2)nc1` ; EC50 = 16 nM

So for `O=C1NC(=O)c2cc(C#Cc3ccc(F)cc3)ccc21` , the logged EC50 turned out to be 160 nM

Kindly note the recorded EC50 for `O=C1NC(=O)c2cc(C#Cc3ccccc3F)ccc21` , which is 12 nM

Lab book: EC50 of `CCCCN1CCc2cc(C#Cc3ccccc3)ccc2C1=O` noted as 96 nM

Per the record, `O=C1c2ccc(C#Cc3ccccc3)cc2CCN1CC1CC1` has EC50 of 180 nM

Continuing:
Lab book: EC50 of `O=C1c2ccc(C#Cc3ccccc3)cc2C(=O)N1CCc1ccccn1` noted as 870 nM

Form field EC50, entry `Cc1ccccc1C#Cc1ccc2c(c1)CCNC2=O` : 610 nM

What the record says about `O=C1NCc2cc(C#Cc3cccc(F)c3)ccc21` : EC50 is 66 nM

---

# Subject Of Test: Metabotropic glutamate receptor 5 (Homo sapiens, UniProt P41594)
# Experiment Description: Positive allosteric modulation of mGlu5 receptor assessed as calcium mobilization at 30 uM relative to glutamate
# Assay type: functional
# Sequence (P41594 21-1212 limits assumed): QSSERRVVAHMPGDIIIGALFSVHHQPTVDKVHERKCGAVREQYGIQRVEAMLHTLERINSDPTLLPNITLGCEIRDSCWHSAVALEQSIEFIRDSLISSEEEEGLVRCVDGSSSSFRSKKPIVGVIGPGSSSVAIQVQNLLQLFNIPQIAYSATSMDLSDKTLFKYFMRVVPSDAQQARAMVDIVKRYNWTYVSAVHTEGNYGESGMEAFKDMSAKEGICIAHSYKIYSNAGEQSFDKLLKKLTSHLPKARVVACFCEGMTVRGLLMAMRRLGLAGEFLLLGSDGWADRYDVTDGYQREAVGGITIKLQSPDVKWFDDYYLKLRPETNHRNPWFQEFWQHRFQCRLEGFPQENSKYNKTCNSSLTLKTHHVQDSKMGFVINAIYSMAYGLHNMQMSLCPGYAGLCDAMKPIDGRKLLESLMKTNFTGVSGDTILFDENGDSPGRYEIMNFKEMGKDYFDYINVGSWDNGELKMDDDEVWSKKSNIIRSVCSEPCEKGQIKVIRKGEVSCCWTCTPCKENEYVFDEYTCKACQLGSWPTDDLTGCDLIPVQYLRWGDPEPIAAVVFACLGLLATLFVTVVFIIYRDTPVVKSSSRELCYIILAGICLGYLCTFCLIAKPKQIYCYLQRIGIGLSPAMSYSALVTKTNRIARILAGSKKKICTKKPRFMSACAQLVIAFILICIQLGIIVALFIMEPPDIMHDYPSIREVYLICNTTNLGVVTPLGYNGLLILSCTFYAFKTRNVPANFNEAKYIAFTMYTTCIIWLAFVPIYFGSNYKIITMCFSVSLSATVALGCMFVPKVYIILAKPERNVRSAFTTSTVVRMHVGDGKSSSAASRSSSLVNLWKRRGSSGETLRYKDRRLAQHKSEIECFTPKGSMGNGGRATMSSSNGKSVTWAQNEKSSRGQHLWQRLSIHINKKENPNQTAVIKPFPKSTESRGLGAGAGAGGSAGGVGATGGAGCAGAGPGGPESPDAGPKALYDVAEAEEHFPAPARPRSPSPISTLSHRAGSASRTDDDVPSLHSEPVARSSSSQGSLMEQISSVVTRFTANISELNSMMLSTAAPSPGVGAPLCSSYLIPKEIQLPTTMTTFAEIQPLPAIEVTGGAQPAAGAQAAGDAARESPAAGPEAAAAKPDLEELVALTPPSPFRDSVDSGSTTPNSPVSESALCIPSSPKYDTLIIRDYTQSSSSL
Experimental Readout: Activity (%)
Return type: number; implicit unit %.

Below, each entry is followed by its recorded Activity result.
Kindly note the recorded Activity for `O=C1c2ccc(C#Cc3ccccc3)cc2CCN1CC1CC1` , which is 69

response.value for `O=C1NCCc2cc(C#Cc3ccc(F)cc3F)ccc21` (field: Activity) = 59

Quick note, Activity for `O=C1NCc2cc(C#Cc3ccccc3)ccc21` landed at 69

Field Activity (entry `O=C1c2ccc(C#Cc3ccccc3)cc2CCN1Cc1ccccc1` ) reads 90

Entry `O=C1NCCc2cc(C#Cc3ccc(F)cc3)ccc21` ; Activity = 81

For record `O=C1c2ccc(C#Cc3ccccc3)cc2C(=O)N1CCc1ccncc1` the listed Activity is 76

// next entry
The compound identified as `CCCCN1CCc2cc(C#Cc3ccccc3)ccc2C1=O` registered its Activity at 97

---

A collection of compounds and their measured IC50
# Subject Of Test: Metabotropic glutamate receptor 5 (Homo sapiens, UniProt P41594)
# Experiment Description: Antagonist activity against mGlu5 receptor assessed as inhibition of calcium mobilization
Could you give me the number in µM? Just the number is fine.

Sure, the documented IC50 for `O=C1c2ccc(C#Cc3cccc(F)c3)nc2CCN1CC1CC1` is 0.66

Next:
Query `CN1CCc2nc(C#Cc3cccc(F)c3)ccc2C1=O` yields IC50 of 0.17

---

Each entry below carries its reported Activity.
# Subject Of Test: Metabotropic glutamate receptor 5 (Homo sapiens, UniProt P41594)
# Experiment Description: Positive allosteric modulation of mGlu5 receptor assessed as calcium mobilization at 30 uM relative to glutamate
# Type: functional
Record the value in %, omitting the unit from your answer.

// known answers, use as guide
Reported Activity for `COc1cccc(C#Cc2ccc3c(c2)CCNC3=O)c1` was 58

The recorded Activity for `O=C1c2ccc(C#Cc3ccccc3)cc2C(=O)N1CCc1ccccn1` is 40

Further cases:
The molecule listed as `O=C1NCc2cc(C#Cc3cccc(F)c3)ccc21` has a reported Activity of 71

Measured Activity, `O=C1NC(=O)c2cc(C#Cc3cccc(F)c3)ccc21` : 99

The reported value for `O=C1NCCc2cc(C#Cc3ccccc3Cl)ccc21` in terms of Activity is 50

Source of measurements: ChEMBL document CHEMBL1681693
